These measurements were taken from PubChem BioAssay (Tox21).

- ASSAY NOTES: qHTS assay to identify small molecule antagonists of the glucocorticoid receptor (GR) signaling pathway - cell viability counter screen (AID 720693); further: nearly all actives have a fitted effect of over 55% in size
- EXPERIMENTAL CONTEXT: GR-bla HeLa viability, CellTiter-Glo luminescence, 18 h, with 5 nM dexamethasone present; series mostly up to 58.5 µM
Records with an inconclusive call do not appear. The source made the active and inactive calls. The call rests on the fitted dose curve; in most records, active means well fitted cell-killing curve with a large enough effect in the repeat runs; inconclusive means weak or mixed curves, or effect the other way; inactive means no such curve, though single readings can be large or run the other way.
Outcomes: T for active, F for inactive

1) CCCCC(CC)CO[N+](=O)[O-] (configuration not stated) | F
2) FC(Cl)(Cl)C(F)(Cl)Cl | F
3) CC(O)CN1CCN(CC(=O)[O-])CCN(CC(=O)[O-])CCN(CC(=O)[O-])CC1.[Gd+3] (configuration not stated) | F
4) Cc1ncc(C[n+]2csc(CCO)c2C)c(N)n1 | F
5) Nc1cccc2ccccc12 | F
6) O=C(O)COc1cc(Cl)c(Cl)cc1Cl | F
7) CCc1ccccc1N | F
8) CCOP(=S)(S)OCC | F
9) CN(C)N | F
10) C[N+](C)(C)CC1CO1 (configuration not stated) | F
11) O=C(N/N=C/c1ccc([N+](=O)[O-])o1)c1cc([N+](=O)[O-])cc([N+](=O)[O-])c1O | F
12) CNC(=O)Oc1cccc(N=CN(C)C)c1 | F
13) NC(=O)CF | F
14) C[C@]12C=CC3=C4CCC(=O)C=C4CC[C@H]3[C@@H]1CC[C@@H]2O | T
15) c1ccc2sc(SNC3CCCCC3)nc2c1 | F
16) OCCCl | F
17) NCCc1cc(O)c(O)cc1O | F
18) NC(=S)c1c(Cl)cccc1Cl | F
19) CCOP(=O)(O)C(N)=O | F
20) CC[N+]1(C)CCCC(OC(=O)C(O)(c2ccccc2)c2ccccc2)C1 (configuration not stated) | F
21) Cc1ccc(N)c(C)c1 | F
22) COCc1cnc(C2=NC(C)(C(C)C)C(=O)N2)c(C(=O)O)c1 (configuration not stated) | F
23) COc1cc(C[C@@H](C)N)c(OC)cc1Br | F
24) O=C(Cc1ccccc1)OCCc1ccccc1 | F
25) N#CC(C#N)=C(C#N)C#N | F
26) Clc1ccc2ccccc2c1 | F
27) Cc1nc2ccccc2c(=O)n1-c1ccccc1Cl | F
28) Cc1ccccc1 | F
29) COC(=O)C1(O)c2ccccc2-c2ccccc21 | F
30) CC(Oc1cc(Cl)c(Cl)cc1Cl)C(=O)O (configuration not stated) | F
31) O=C(Cl)OCCOCCOC(=O)Cl | F
32) O=C(O)CCCOc1ccc(Cl)cc1Cl | F
33) CN[C@@H](C)[C@H](O)c1ccccc1 | F
34) CCOP(=O)(SC(C)CC)N1CCSC1=O (configuration not stated) | F
35) COc1ccc2c(c1OC)C(=O)O[C@H]2[C@@H]1c2cc3c(cc2CCN1C)OCO3 | F
36) CC(C)CCCCCCCOC(=O)c1ccccc1C(=O)OCCCCCCCC(C)C | F
37) CCCCOC(=O)CCC(=O)OCCCC | F
38) CC(C)CCON=O | F
39) O=C(O)c1cc(I)cc(I)c1I | F
40) CCOP(=S)(OCC)Oc1ccc(S(C)=O)cc1 (configuration not stated) | F
41) COC1CC(=C(c2cccs2)c2cccs2)C[N+](C)(C)C1 (configuration not stated) | F
42) O=C(O)c1cc(Cl)ccc1Cl | F
43) Clc1ccccc1 | F
44) O=[N+]([O-])O[C@H]1CO[C@H]2[C@@H]1OC[C@H]2O[N+](=O)[O-] | F
45) CCCCC1C(=O)NC(=O)N(C2CCCCC2)C1=O (configuration not stated) | F
46) FC(F)OC(F)(F)C(F)Cl (configuration not stated) | F
47) Nc1c(Br)cc(Br)c2c1C(=O)c1ccccc1C2=O | F
48) CCCN(CCC)C(=O)Cc1c(-c2ccc(Cl)cc2)nc2ccc(Cl)cn12 | F
49) CCCCCCCCCCCCCCCl | F
50) CN1CC[C@]23c4c5ccc(O)c4O[C@H]2[C@@H](O)C=C[C@H]3[C@H]1C5 | F
51) CCCCCl | F
52) C=CCN1C[C@H](C)N([C@H](c2ccc(C(=O)N(CC)CC)cc2)c2cccc(OC)c2)C[C@H]1C | F
53) C1CCNCC1 | F
54) COc1ccc(C(=O)c2c(C)n(CCN3CCOCC3)c3ccccc23)cc1 | F
55) O=C1CC[C@@]2(O)[C@H]3Cc4ccc(O)c5c4[C@@]2(CCN3CC2CC2)[C@H]1O5 | F
56) CCCC[N+](CCCC)(CCCC)CCCC | F
57) CCOC(=O)NC(O)C(Cl)(Cl)Cl (configuration not stated) | F
